Hello, the source for this data is patent US20110082133A1, in case you need it.

measured-target: rat EP4 receptor (Rattus norvegicus)
Sequence (P43114 whole entry): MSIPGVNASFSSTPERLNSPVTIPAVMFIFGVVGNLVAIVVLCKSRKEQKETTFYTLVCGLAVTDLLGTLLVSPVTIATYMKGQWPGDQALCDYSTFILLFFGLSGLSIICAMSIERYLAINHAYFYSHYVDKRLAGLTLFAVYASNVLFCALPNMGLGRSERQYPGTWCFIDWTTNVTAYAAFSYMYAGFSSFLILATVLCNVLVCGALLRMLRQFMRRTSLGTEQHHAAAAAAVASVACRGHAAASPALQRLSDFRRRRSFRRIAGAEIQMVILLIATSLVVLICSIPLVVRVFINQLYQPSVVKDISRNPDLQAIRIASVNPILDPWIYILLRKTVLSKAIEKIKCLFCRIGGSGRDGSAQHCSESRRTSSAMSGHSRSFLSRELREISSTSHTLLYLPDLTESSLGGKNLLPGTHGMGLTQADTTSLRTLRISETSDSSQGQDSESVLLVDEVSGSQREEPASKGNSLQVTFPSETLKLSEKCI
procedure-text: EP4 receptor agonistic action in rat (cAMP increasing action in rat EP4 receptor expression CHO-K1 cells)
Assay type: cell-based
Parameters: expressed in transfected cells
measurement-conditions: cAMP increasing action by 1 μM PGE2 taken as 100%
Counter-ions that a name gives are not always drawn.
observable: cAMP increasing action (%) at 10 μM

O=C(O)c1ccc(CCn2c(CNc3cccc(OC(F)(F)F)c3)c(Cl)cc(Cl)c2=O)cc1 [Example 107] :: 76
CN(Cc1c(Cl)cc(Cl)c(=O)n1CCc1ccc(C(=O)O)cc1)c1cccc(Cl)c1 [Example 160] :: 79
O=C(O)c1ccc(CCn2c(CN3CCc4ccc(F)cc43)c(Cl)cc(Cl)c2=O)cc1 [Example 9] :: 65

I. CCC[C@H]1CCCN1Cc1c(Cl)cc(Cl)c(=O)n1CCc1ccc(C(=O)O)cc1 [Example 17, trifluoroacetate]
II. CCC[C@H]1CCCN1Cc1c(Cl)cc(Cl)c(=O)n1CCc1ccc(-c2n[nH]c(=O)o2)cc1 [Example 208]
Prompt: Would you let me know which has the greater cAMP increasing action (%) at 10 μM value, I or II ? Your choice should be expressed through its label.
Response: II
